# Tested on: RXF 393 renal
# assay_remarks: NCI tumour cell line growth inhibition, 48 h; in the data active means GI50 below about 0.43 µM; inactive means the rest
Answer with one of the outcomes active, inactive

Example cases with answers are listed next.
compound: N#Cc1ccc2c(c1)C(=O)c1c-2n(CCCN)c(=O)c2cc([N+](=O)[O-])ccc12
measured_target: RXF 393 renal
group_label: inactive
//
compound: CCNCCCn1c2c(c3ccc([N+](=O)[O-])cc3c1=O)C(=O)c1cc(OC)cnc1-2
measured_target: RXF 393 renal
group_label: active
//
compound: O=C1CS/C(=N\S(=O)(=O)c2ccc(N3N=C4c5ccccc5CC4C3c3ccc(Cl)cc3)cc2)N1c1ccccc1 (stereo not drawn)
measured_target: RXF 393 renal
group_label: inactive

Input line: Test call, this compound: Cc1[nH]nc2c1N=C(c1ccccc1Cl)c1cc([N+](=O)[O-])ccc1N2
Output line: active

Input line: Test call, this compound: O=C1NN(c2ccccc2)C(=O)/C1=C/c1ccc(Br)o1
Output line: inactive

Input line: Test call, this compound: NC1=Nc2cc(OCCCN3Cc4ccccc4C3)c(OCC3CC3)cc2C12CCCC2
Output line: inactive

Input line: Test call, this compound: N#C/C(=C\c1ccc(Br)cc1)n1nnc2ccccc21
Output line: inactive

Input line: Test call, this compound: N#Cc1c(N)nc(N2CCOCC2)c(C#N)c1-c1ccccc1Cl
Output line: inactive

----------
# Tested on: LXFL 529 NSCLC
# assay_remarks: NCI tumour cell line growth inhibition, 48 h
# TGI per record follows

compound: CCOC(=O)/C(=C\c1ccc[nH]1)C(=O)c1ccccc1
recorded_result: > 100 µM
//
compound: C1=Nc2ccccc2C=Nc2ccccc2C=Nc2ccccc2C=Nc2ccccc21.[Cl-].[Pt+2]
recorded_result: 60 µM
//
compound: O=c1c2cccnc2ncn1CCN1CCCC1
recorded_result: > 100 µM

Now, please, on to the next compound.
Input line: Recorded TGI for O=c1c2ccccc2[nH]c2cc(O)cc(O)c12 , please?
Output line: > 100 µM

----------
# TGI per record follows
# Test system: LOX IMVI melanoma
# assay_remarks: NCI tumour cell line growth inhibition, 48 h
All answers are understood in µM, so give the number only.

compound: COc1cc(/C=C(\OC(C)=O)c2ccc3c(c2)OCO3)cc(OC)c1OC
recorded_result: 31.3
//
compound: COC1=C(Br)C(=O)C2=C(C1=O)C1C3=C(C(=O)C=CC3=O)C2c2ccccc21 (configuration not stated)
recorded_result: 26
//
compound: O=C1NN(c2ccccc2)C(=O)/C1=C/c1ccc(Br)o1
recorded_result: 22.4
//
compound: CCN(CC)CCCOc1cc2c(cc1OC)C(=O)N1CCC[C@H]1C=N2
recorded_result: 31.3
//
compound: O=C1CCS/C(=N\S(=O)(=O)c2ccc(N3N=C4c5ccccc5CC4C3c3cccs3)cc2)N1C(=O)c1ccccc1 (configuration not stated)
recorded_result: 23.8

Input line: Requested read-out TGI, target or system LOX IMVI melanoma, entry COc1cc(Nc2nc3ccc(C(F)(F)F)cc3nc2-c2ccccc2)cc(OC)c1OC
Output line: 15.5

Input line: Requested read-out TGI, target or system LOX IMVI melanoma, entry C[C@]1(O)O[C@@H]2OCC[C@@H]2C2=C1C(=O)c1ccccc1C2=O
Output line: 25.2

Input line: Requested read-out TGI, target or system LOX IMVI melanoma, entry Cc1cc(N(CCCl)CCCl)ccc1/C=N/NC(=O)Cc1cc(=O)oc2cc(O)ccc12
Output line: 26.7

Input line: Requested read-out TGI, target or system LOX IMVI melanoma, entry O=C(OCCC12CC3CC(CC(C3)C1)C2)c1ccc(NCc2cc(O)ccc2O)cc1
Output line: 4.37

----------
# Test system: NCI-H226 lung
# assay_remarks: NCI tumour cell line growth inhibition, 48 h
endpoint_name: log10 of TGI (log10 of the value in µM)
Quick note: numbers are log10 of TGI, with µM as the unit.

Would you please look over these solved cases?
compound: COc1cc(C2c3cc4c(cc3[C@@H](Nc3cccc([N+](=O)[O-])c3)C3COC(=O)[C@H]23)OCO4)cc(OC)c1O (stereo not given in full)
log10 of TGI: 0.90
//
compound: C=C1C(=O)O[C@H]2[C@H]1CC/C(COC(=O)c1ccccc1)=C\CC[C@@]1(C)O[C@@H]21
log10 of TGI: 0.57
//
compound: COc1cc(Nc2nc3ccc(C(F)(F)F)cc3nc2-c2ccccc2)cc(OC)c1OC
log10 of TGI: 1.82
//
compound: Cn1cnc([N+](=O)[O-])c1Sc1nnnn1-c1ccccc1
log10 of TGI: 1.56
//
compound: Fc1ccc2[nH]cc(SSc3c[nH]c4ccc(F)cc34)c2c1
log10 of TGI: 0.90
//
compound: c1ccc(COC2(OCc3ccccc3)CC3OC2C2NN=NC32)cc1 (stereo not given)
log10 of TGI: 1.59
//
compound: Clc1c(C(Cl)(Cl)Cl)nsc1N1CCCCC1
log10 of TGI: 1.56
//
compound: CN1CCN(c2ccc(C(=O)Nc3cc(-c4cccc(NS(=O)(=O)c5ccccc5)c4)[nH]n3)cc2)CC1
log10 of TGI: 1.60

Input line: Recorded log10 of TGI for COc1ccccc1/C=C/C(=O)/C=C/c1ccccc1OC , please?
Output line: 0.50

Input line: Recorded log10 of TGI for Oc1ccc(O)c(CNc2ccccc2)c1 , please?
Output line: 1.89

----------
# System: IGROV1 ovarian
# assay_remarks: NCI tumour cell line growth inhibition, 48 h
endpoint_name: TGI (µM)
All answers are understood in µM, so give the number only.

smiles_notation: C=C1C(=O)O[C@@H]2[C@H](O)[C@@H](C)[C@@H]3C=CC(=O)[C@@]3(C)[C@H](OC(=O)C=C(C)C)[C@H]12
TGI, µM: 4.48

Input line: Recorded TGI for CC(=O)Oc1ccc(/C=C/C(=O)O[C@H]2CCCC[C@@H]2OC(=O)/C=C/c2ccc(OC(C)=O)c(OC(C)=O)c2)cc1OC(C)=O , please?
Output line: 64.9

----------
# System: HCT-15 colon
# assay_remarks: NCI tumour cell line growth inhibition, 48 h
endpoint_name: TGI

Would you please look over these solved cases?
compound: CCOC(=O)c1cc(C(=O)c2cc(OC)c(OC)c(OC)c2)n2ccccc12
TGI: > 100 µM
//
compound: NC1(C(=O)O)CCCC1
TGI: > 625 µM
//
compound: COc1ccc(-c2csc(NC(=O)c3cc(O)c(O)c(O)c3)n2)cc1
TGI: > 33.3 µM
//
compound: CC(=O)OCC1OC(O/C=C(\CN=[N+]=[N-])C(C)=O)C(OC(C)=O)C(OC(C)=O)C1OC(C)=O (stereo not drawn)
TGI: 18.9 µM
//
compound: C1=Nc2ccccc2C=Nc2ccccc2C=Nc2ccccc2C=Nc2ccccc21.[Cl-].[Pt+2]
TGI: 83.1 µM
//
compound: Cc1ccc(C(=O)Nc2ccc(S(=O)(=O)O)c3cc(S(=O)(=O)O)cc(S(=O)(=O)O)c23)cc1NC(=O)c1cccc(NC(=O)Nc2cccc(C(=O)Nc3cc(C(=O)Nc4ccc(S(=O)(=O)O)c5cc(S(=O)(=O)O)cc(S(=O)(=O)O)c45)ccc3C)c2)c1 (tested in a mixture with another compound)
TGI: > 50 µM
//
compound: NC(=O)CC(N=C1C(=O)OC(C(O)CO)C1=NC(CC(N)=O)C(=O)O)C(=O)O (stereo not drawn)
TGI: > 100 µM

Now, please, on to the next compound.
Input line: Recorded TGI for Clc1c(C(Cl)(Cl)Cl)nsc1N1CCCCC1 , please?
Output line: 79.9 µM

----------
# TGI per record follows
# Tested on: ACHN renal
# assay_remarks: NCI tumour cell line growth inhibition, 48 h

molecule: c1ccc(COC2(OCc3ccccc3)CC3OC2C2NN=NC32)cc1 (stereo not given)
endpoint_name: TGI
recorded_result: > 100 µM

Input line: Recorded TGI for O=C(OCc1ccccc1)N1CCN(C(=O)OCc2ccccc2)CCN(C(=O)OCc2ccccc2)CCN(C(=O)OCc2ccccc2)CCN(C(=O)OCc2ccccc2)CC1 , please?
Output line: > 100 µM

Input line: Recorded TGI for Cn1c(=O)c(Oc2ccccc2)cc2cnc(NC3CCOCC3)nc21 , please?
Output line: > 25 µM

Input line: Recorded TGI for COc1cc2c(cc1OC)-c1cc3cc(OC)c(OC)cc3c(=O)n1CC2 , please?
Output line: > 86 µM

Input line: Recorded TGI for CCN(CC)CCCC(C)NC(=O)c1ccc2c(c1)C(=O)c1ccccc1C2=O (stereo not given) , please?
Output line: 38.2 µM

Input line: Recorded TGI for C=C(C(=O)OC)c1cc2ccccc2n1S(=O)(=O)c1ccccc1 , please?
Output line: 5.89 µM

Input line: Recorded TGI for O=C(NCc1ccncc1)C1COc2cc(-c3cc(=O)c4ccccc4o3)ccc2O1 (stereo not given) , please?
Output line: > 100 µM

Input line: Recorded TGI for CCOC(=O)/C(=C\c1ccc[nH]1)C(=O)c1ccccc1 , please?
Output line: > 100 µM

Input line: Recorded TGI for COC(=O)c1ccccc1C1CN=NC12Cc1cccc(C)c1C2=O (stereo not given) , please?
Output line: > 100 µM

Input line: Recorded TGI for CC(=O)N1c2ccccc2C(C)C1c1[nH]c2ccccc2c1C (stereo not given) , please?
Output line: > 100 µM
